Biological target: UniProt:Q9Y5Y6
Sequence (Q9Y5Y6 whole entry): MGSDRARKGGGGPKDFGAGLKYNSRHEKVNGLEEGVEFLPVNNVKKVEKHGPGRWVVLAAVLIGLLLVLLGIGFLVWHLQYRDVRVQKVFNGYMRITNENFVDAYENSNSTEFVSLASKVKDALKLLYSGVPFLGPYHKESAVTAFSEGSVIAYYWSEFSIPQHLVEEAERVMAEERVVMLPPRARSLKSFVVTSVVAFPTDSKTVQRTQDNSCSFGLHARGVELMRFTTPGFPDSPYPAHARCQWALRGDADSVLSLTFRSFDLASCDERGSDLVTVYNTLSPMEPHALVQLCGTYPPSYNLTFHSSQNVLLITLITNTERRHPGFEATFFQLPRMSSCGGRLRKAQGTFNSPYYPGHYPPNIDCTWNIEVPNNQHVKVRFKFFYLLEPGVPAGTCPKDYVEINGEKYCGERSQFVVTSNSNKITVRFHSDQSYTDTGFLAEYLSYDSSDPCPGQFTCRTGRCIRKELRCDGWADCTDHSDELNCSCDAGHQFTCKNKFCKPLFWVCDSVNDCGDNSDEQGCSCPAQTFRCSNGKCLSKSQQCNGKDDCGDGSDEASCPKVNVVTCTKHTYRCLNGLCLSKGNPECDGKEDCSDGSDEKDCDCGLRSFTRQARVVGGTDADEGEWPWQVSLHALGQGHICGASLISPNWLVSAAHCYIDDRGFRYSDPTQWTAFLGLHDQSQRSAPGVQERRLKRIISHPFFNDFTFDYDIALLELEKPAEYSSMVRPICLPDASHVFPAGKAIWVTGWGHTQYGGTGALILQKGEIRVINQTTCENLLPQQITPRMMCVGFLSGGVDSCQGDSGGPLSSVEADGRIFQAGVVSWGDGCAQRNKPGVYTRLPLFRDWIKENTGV
pKi: −log10 of the molar value.
Consider the following pKi data for UniProt:Q9Y5Y6, collected from several reports.
Property Name: pKi

Look over these answered cases.
N=C(N)NCCC(=O)Nc1ccc(S(=O)(=O)N[C@@H](Cc2cccc(C(=N)N)c2)C(=O)N2CCC(CCNC(=N)N)CC2)cc1 : 8.06
N=C(N)c1ccc(Oc2ccc(C(=O)N[C@H]3CC[C@H](N)CC3)c(Oc3ccc(C(=N)N)cc3)n2)cc1 : 6.30
CC(C)(C)[C@H](NC(=O)[C@H](CCc1ccccc1)NC(=O)CCc1ccccc1)C(=O)N[C@@H](CCCNC(=N)N)C(=O)c1nc2ccccc2s1 : 4.82
N=C(N)c1cccc(C[C@H](NS(=O)(=O)c2cccc(-c3ccccc3F)c2)C(=O)N2CCC(CCN)CC2)c1 : 7.64
Cc1ccc(S(=O)(=O)N[C@@H](Cc2cccc(C(=N)N)c2)C(=O)N2CCC(c3ccccc3)CC2)cc1 : 6.32

A: CCOC(=O)N1CCN(C(=O)[C@H](Cc2cccc(C(=N)N)c2)NS(=O)(=O)c2cccc(NC(=O)CCN)c2)CC1
B: N=C(N)c1ccc(NCCCCCCCCNc2ccc(C(=N)N)cc2)cc1
Task for the reader: decide whether A or B has the larger pKi. Answer = label.
A
(A: 7.19, B: 6.28)

---

Biological target: Suppressor of tumorigenicity 14 protein (Homo sapiens)
Sequence (Q9Y5Y6 whole entry): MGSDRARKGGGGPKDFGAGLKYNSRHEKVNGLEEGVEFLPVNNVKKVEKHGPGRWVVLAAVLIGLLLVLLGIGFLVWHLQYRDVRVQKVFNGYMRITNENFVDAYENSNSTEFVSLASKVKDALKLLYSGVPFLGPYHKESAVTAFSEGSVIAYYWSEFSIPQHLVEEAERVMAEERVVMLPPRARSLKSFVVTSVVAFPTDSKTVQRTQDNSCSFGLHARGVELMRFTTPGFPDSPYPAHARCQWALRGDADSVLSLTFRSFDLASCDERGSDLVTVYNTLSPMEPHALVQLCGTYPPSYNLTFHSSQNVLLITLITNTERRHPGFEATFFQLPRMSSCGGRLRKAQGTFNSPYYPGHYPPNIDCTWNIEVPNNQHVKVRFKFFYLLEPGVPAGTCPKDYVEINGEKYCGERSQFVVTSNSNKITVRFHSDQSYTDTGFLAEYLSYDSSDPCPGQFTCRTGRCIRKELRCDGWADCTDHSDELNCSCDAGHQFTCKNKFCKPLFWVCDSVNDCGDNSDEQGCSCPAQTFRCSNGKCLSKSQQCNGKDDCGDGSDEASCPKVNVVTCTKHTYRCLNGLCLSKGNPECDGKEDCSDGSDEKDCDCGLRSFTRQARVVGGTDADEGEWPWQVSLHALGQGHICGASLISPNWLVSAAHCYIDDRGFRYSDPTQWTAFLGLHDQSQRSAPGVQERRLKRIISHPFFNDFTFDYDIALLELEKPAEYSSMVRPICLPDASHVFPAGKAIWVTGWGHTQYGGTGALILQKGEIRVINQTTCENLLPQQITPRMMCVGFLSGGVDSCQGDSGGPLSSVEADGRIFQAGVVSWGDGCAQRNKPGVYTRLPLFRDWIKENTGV
Please find below Ki measurements for Suppressor of tumorigenicity 14 protein (Homo sapiens), combined from several publications.
Property Name: Ki (µM)

CCOc1ccc(-c2cccc(S(=O)(=O)N[C@@H](Cc3cccc(C(=N)N)c3)C(=O)N3CCC(CCCC(=O)NC)CC3)c2)c(Cl)c1 : 0.049

1: CC(=O)N[C@@H](CCCCN)C(=O)N[C@@H](CCC(N)=O)C(=O)N[C@@H](CC(C)C)C(=O)N[C@@H](CCCNC(=N)N)C(=O)c1nccs1
2: N=C(N)c1cccc(C[C@H](NS(=O)(=O)c2cccc(NC(=O)CCN)c2)C(=O)N2CCCC[C@@H]2C(=O)O)c1
Short answer wanted: higher Ki, 1 or 2 ? Lab note: record the label of whichever item you select.
2
